- Tested on: Nucleic Acid
- method.notes: Binding affinity to radiolabeled Pvu2 DNA after 15 mins by Dnase1 footprinting assay
- Type: nucleic-acid assay
Calls of active or inactive are those of the source. No cut-off for these calls is given here.

{"structure.smiles.string": "O=c1[nH]c2ccc(C3=NCCN3)cc2c2c1sc1ccccc12", "Activity": "Active"}
{"structure.smiles.string": "O=C(Nc1ccccc1)c1sc2cc(C3=NCCN3)ccc2c1Cl", "Activity": "Active"}
{"structure.smiles.string": "O=C(Nc1ccc(C2=NCCN2)cc1)c1sc2cc(C3=NCCN3)ccc2c1Cl", "Activity": "Active"}
{"structure.smiles.string": "O=c1[nH]c2ccc(C3=NCCN3)cc2c2c1sc1cc(C3=NCCN3)ccc12", "Activity": "Active"}
{"structure.smiles.string": "O=C(Nc1ccc(C2=NCCN2)cc1)c1sc2ccccc2c1Cl", "Activity": "Active"}
{"structure.smiles.string": "Cn1c(=O)c2sc3ccccc3c2c2cc(C3=NCCN3)ccc21", "Activity": "Active"}
{"structure.smiles.string": "O=c1[nH]c2ccccc2c2c1sc1cc(C3=NCCN3)ccc12", "Activity": "Active"}
